mean % inhibition 5-HT2A reference
target: serotonin receptor 5-HT2A (Homo sapiens); experiment: NIH-PDSP binding assay, 5-HT2A (3H-ketanserin); conditions: Table 4; N=4 determinations; significant inhibition >50%; negative = stimulation of binding
Sequence (P28223 whole entry): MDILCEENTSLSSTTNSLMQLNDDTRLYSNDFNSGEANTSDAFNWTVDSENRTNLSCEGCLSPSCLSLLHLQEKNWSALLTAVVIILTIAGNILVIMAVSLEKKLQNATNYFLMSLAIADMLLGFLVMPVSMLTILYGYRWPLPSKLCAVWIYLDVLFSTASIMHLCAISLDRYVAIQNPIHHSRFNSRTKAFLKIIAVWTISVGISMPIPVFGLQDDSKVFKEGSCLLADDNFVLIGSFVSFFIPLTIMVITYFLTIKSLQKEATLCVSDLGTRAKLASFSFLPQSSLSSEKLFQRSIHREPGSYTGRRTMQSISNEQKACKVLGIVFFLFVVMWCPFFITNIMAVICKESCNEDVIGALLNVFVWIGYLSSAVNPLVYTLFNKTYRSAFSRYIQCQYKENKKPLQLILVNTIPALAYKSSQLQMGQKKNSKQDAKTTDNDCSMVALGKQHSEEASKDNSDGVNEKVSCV

- compound: "FC(F)(F)c1ccc(OC(CN2CCN(c3cccc(Cl)c3)CC2)c2ccccc2)cc1 (stereo not shown)"
  assayed_system: "serotonin receptor 5-HT2A (Homo sapiens)"
  mean % inhibition 5-HT2A (%): 17.0
- compound: "Fc1ccc(OC(CN2CCN(c3ccccc3)CC2)c2ccccc2)cc1 (stereo not shown)"
  assayed_system: "serotonin receptor 5-HT2A (Homo sapiens)"
  mean % inhibition 5-HT2A (%): 61.0
- compound: "FC(F)(F)c1ccc(OC(CCN2CCN(c3ccccc3)CC2)c2ccccc2)cc1 (stereo not shown)"
  assayed_system: "serotonin receptor 5-HT2A (Homo sapiens)"
  mean % inhibition 5-HT2A (%): 81.0
- compound: "Fc1ccc(OC(CCN2CCN(c3ccccc3)CC2)c2ccccc2)cc1 (stereo not shown) [Compound 16b]"
  assayed_system: "serotonin receptor 5-HT2A (Homo sapiens)"
  mean % inhibition 5-HT2A (%): 96.0
